# Test Name: Microsomal metabolic stability assay
# Type: in vitro ADME
# Measurement Setup: pH 7.4; rat liver microsomes, 0.5 mg/mL protein, 1 μM compound; read-out: Rat LM T½
Below: a set of entries, each annotated with reported half-life at 1 μM.
Assay Metric: half-life at 1 μM (h)

>>> print(df.to_string())
                                   compound       assay_metric  censoring_qualifier  numeric_readout
0  [2H]C([2H])([2H])NC(=O)c1cnc2cc1Nc1cc(cc(-c3ncn(C4CC4)n3)c1OC)COCc1nc(ccc1F)N2  half-life at 1 μM                    >                2
1  CNC(=O)c1cnc(NC(=O)C2CC2)cc1Nc1cn(C)c2ccn(C)c(=O)c12  half-life at 1 μM                    =             1.41
2  [2H]C([2H])([2H])NC(=O)c1cnc(NC(=O)C2CC2)cc1Nc1csc2cnn(CC3CC3(F)F)c(=O)c12 (stereo not shown)  half-life at 1 μM                    =             1.77
3  [2H]C([2H])([2H])NC(=O)c1cnc(NC(=O)C2CC2)cc1Nc1cc(F)c2cnn(CC)c2c1OC  half-life at 1 μM                    =            0.185
